// recombinant barcode read abundance (log10) lookup, one value per entry
method summary: recombinant barcode read abundance after kanamycin selection (control-corrected) (log10(CPM+1)); higher = more efficient recombination; sequences stand for … in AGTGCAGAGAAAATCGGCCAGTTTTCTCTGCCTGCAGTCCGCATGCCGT…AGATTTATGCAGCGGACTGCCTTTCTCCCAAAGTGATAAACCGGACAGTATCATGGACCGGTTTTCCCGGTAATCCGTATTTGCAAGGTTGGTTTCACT; site = the 11-nt target
observed property: recombinant barcode read abundance (log10)

* ACATCTACTTGGGTTCTAACCTGTTGCTA (site ACATCTACTTA) | 0.145
* TAGAAGGCTTGGGTTCTAACCTGTTGCCT (site TAGAAGGCTAG) | 0.216
* TAGACGGCTTGGGTTCTAACCTGTTGCAT (site GGATACACTCG) | 0.191
* GGCAAACCTTGGGTTCTAACCTGTTGCGG (site GGCAAACCTCC) | 2.09
* TACTAAACTTGGGTTCTAACCTGTTGCCT (site TACTGAACTAG) | 0.0606
* CACTCTGCTTGGGTTCTAACCTGTTGCCT (site CATTCTGCTAG) | 0.332
* GCCCGTCCTTGGGTTCTAACCTGTTGCCG (site CTCCGTCCTCG) | 0.116
* GAATCTACTTGGGTTCTAACCTGTTGCCT (site GAATCTACTAG) | 0.512
* GAGGGTACTTGGGTTCTAACCTGTTGCAT (site GAGTGTACTAT) | 0.102
* CAGGGTCCTTGGGTTCTAACCTGTTGCGG (site CAGGGTCCTCC) | 3.55
* CGTAAGACTTGGGTTCTAACCTGTTGCCT (site CGTCAGACTAG) | 0.265

----------
method summary: recombinant barcode read abundance after kanamycin selection (control-corrected) (log10(CPM+1)); higher = more efficient recombination; sequences stand for … in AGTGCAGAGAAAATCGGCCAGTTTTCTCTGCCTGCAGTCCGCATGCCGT…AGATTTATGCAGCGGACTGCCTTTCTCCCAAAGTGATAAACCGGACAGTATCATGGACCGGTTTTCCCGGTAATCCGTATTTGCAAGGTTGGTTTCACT; site = the 11-nt target
// recombinant barcode read abundance (log10) lookup, one value per entry
observed property: recombinant barcode read abundance (log10)

- ATCGTATCTTGGGTTCTAACCTGTTGCGC (site ATCGTATCTGC): 0.068
- GTTTGTTCTTGGGTTCTAACCTGTTGCCT (site GTTTGGTCTAG): 0.237
- CTCGTAACTTGGGTTCTAACCTGTTGCCT (site CTCGTAACTAG): 0.361
- CATAGGCCTTGGGTTCTAACCTGTTGCAT (site CATAGACCTAT): 0.23
- ACGAATCCTTGGGTTCTAACCTGTTGCTT (site ACGATTCCTAA): 0.0624
- GCGCGCCCTTGGGTTCTAACCTGTTGCTG (site GCGCGCCCTCC): 0.0616
- GTCGGCGCTTGGGTTCTAACCTGTTGCCT (site GTCGGCGCTAG): 0.912
- GGATACACTTGGGTTCTAACCTGTTGCCA (site GGATTCACTTG): 0.274
- TAGTGCTCTTGGGTTCTAACCTGTTGCCG (site TAGTGCTCTTG): 0.355
- GTCTTACCTTGGGTTCTAACCTGTTGCCT (site GTCCTACCTAG): 1.21
- CCGCGTCCTTGGGTTCTAACCTGTTGCTA (site CCGCCTCCTTC): 0.128
- CAACCTTCTTGGGTTCTAACCTGTTGCCT (site CAACCTTCTAG): 0.7

----------
method summary: recombinant UMI read abundance after kanamycin selection (control-corrected) (log10(CPM+1)); higher = more efficient recombination; extreme values may be limits of the assay; sequences stand for … in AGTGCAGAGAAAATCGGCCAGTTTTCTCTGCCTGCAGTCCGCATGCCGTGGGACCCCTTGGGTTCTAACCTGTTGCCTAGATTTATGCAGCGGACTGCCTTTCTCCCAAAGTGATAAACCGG…AGGTTGGTTTCACT; site = the 11-nt donor
observed property: recombinant UMI read abundance (log10)

* AGCAAGACATGGACCGGTTTTCCCGGTAATCCGTATTTGCA (site AGAAAGACTTG) | 1.86
* GTCTGATCATGGACCGGTTTTCCCGGTAATCCGTATTTGCG (site GTCTGATCTCG) | 2.17
* CCGTATGCATGGACCGGTTTTCCCGGTAATCCGTATTTGAA (site CCGTATGCTTT) | 1.14
* AATGTTACATGGACCGGTTTTCCCGGTAATCCGTATTTGCT (site AATGTCACTAG) | 1.13
* GATATAGCATGGACCGGTTTTCCCGGTAATCCGTATTTGGT (site GATATAGCTAC) | 1.08
* CCGCTGCCATGGACCGGTTTTCCCGGTAATCCGTATTTGAA (site CCGCTGCCTTT) | 0.0286
* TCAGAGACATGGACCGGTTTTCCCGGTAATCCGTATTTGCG (site TCAGACACTCG) | 0.327
* CGGGGAACATGGACCGGTTTTCCCGGTAATCCGTATTTGTT (site CGTGGAACTAA) | 0.548
* ACCGCTACATGGACCGGTTTTCCCGGTAATCCGTATTTGCG (site ACCGCTACTCG) | 1.01
* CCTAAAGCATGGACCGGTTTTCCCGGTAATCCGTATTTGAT (site CCTAAAGCTCT) | 0.00392

----------
method summary: recombinant barcode read abundance after kanamycin selection (control-corrected) (log10(CPM+1)); higher = more efficient recombination; sequences stand for … in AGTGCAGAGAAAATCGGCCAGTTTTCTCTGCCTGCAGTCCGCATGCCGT…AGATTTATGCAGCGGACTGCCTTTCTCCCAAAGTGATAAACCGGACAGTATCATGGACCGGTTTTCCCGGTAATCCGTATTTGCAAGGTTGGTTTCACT; site = the 11-nt target
observed property: recombinant barcode read abundance (log10)

- ACATACACTTGGGTTCTAACCTGTTGCCT (site ACATACACTAG): 0.991
- ACTAAACCTTGGGTTCTAACCTGTTGCCT (site GCTAACCCTAG): 0.246
- CTAAGCTCTTGGGTTCTAACCTGTTGCTT (site CTAAGCTCTAA): 0.0662
- GTCGGAGCTTGGGTTCTAACCTGTTGCTG (site GTCGGAGCTCG): 0.353

----------
// recombinant barcode read abundance (log10) lookup, one value per entry
method summary: recombinant barcode read abundance after kanamycin selection (control-corrected) (log10(CPM+1)); higher = more efficient recombination; sequences stand for … in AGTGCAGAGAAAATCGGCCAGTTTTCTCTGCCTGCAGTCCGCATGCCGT…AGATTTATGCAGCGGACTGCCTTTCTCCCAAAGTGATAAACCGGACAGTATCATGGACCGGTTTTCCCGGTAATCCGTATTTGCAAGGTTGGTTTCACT; site = the 11-nt target
observed property: recombinant barcode read abundance (log10)

- GGGGCGTCTTGGGTTCTAACCTGTTGCCT (site GGGGCGACTAG): 0.167
- CTAGTGACTTGGGTTCTAACCTGTTGCGG (site CTAGTGACTCC): 1.74
- CGTACCTCTTGGGTTCTAACCTGTTGCTG (site CGTACCTCTTA): 0.0203
- TAGAACACTTGGGTTCTAACCTGTTGCTC (site TAGAACACTGA): 0.262
- TCGGAGTCTTGGGTTCTAACCTGTTGCGC (site TCGGAGTCTGC): 1.37
- ACTCGGCCTTGGGTTCTAACCTGTTGCGT (site ACTCGGCCTAG): 0.0703
- ATAGGACCTTGGGTTCTAACCTGTTGCAG (site ATATGTCCTCT): 0.328
- CTCAAACCTTGGGTTCTAACCTGTTGCTT (site CTCACACCTAA): 0.15
- AGTTGCTCTTGGGTTCTAACCTGTTGCCT (site GGTTGCACTAG): 0.268
- GTCGCGGCTTGGGTTCTAACCTGTTGCCT (site GTCGCGACTAG): 0.454
- CTGTGAACTTGGGTTCTAACCTGTTGCCT (site CCGTGAACTAG): 0.133
- CAAACATCTTGGGTTCTAACCTGTTGCCT (site CAAACATCTAG): 0.162
- GAGGGTCCTTGGGTTCTAACCTGTTGCGT (site GAGGGTCCTAT): 2.29
- GCCGAGTCTTGGGTTCTAACCTGTTGCTG (site GCCGAGTCTTA): 0.219
- CTAATGTCTTGGGTTCTAACCTGTTGCCA (site CTAATGTCTAG): 0.622
- CCGCAGACTTGGGTTCTAACCTGTTGCCA (site TCGCAGACTAG): 0.0447
- CCAAGGGCTTGGGTTCTAACCTGTTGCGG (site CCAAGGGCTCA): 0.628
- TCGGATACTTGGGTTCTAACCTGTTGCTT (site TCGGATACTAT): 0.323
- CACTTCCCTTGGGTTCTAACCTGTTGCAT (site CACTTCCCTAC): 0.106
- CGTAAGACTTGGGTTCTAACCTGTTGCCT (site CGTGAGACTAG): 0.0483
- AATTTAGCTTGGGTTCTAACCTGTTGCCT (site AATTGAGCTAG): 0.0396
- TCACGTCCTTGGGTTCTAACCTGTTGCGG (site TCACGTCCTCC): 1.3
- ATGCGCCCTTGGGTTCTAACCTGTTGCCT (site ATGCACCCTAG): 0.43
- CTGTCGCCTTGGGTTCTAACCTGTTGCCT (site CTTTCGCCTAG): 0.0305
- TCCGTGCCTTGGGTTCTAACCTGTTGCCT (site TCCGTGTCTAG): 0.17
- ATCCATCCTTGGGTTCTAACCTGTTGCCT (site ATCCAACCTAG): 0.00851
- TAGGAAACTTGGGTTCTAACCTGTTGCGT (site TAGGAAACTAC): 2.98

Sourced from the supplement of paper PMC11208160
